- Test system: HEC-1;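 also: growth inhibition of the cell line, read out with a cell viability assay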
- Assay Info: cells
- Format: functional, cell-based, Homo sapiens
- Test Parameters: hec-1
- Description: SANGER: Inhibition of human HEC-1 cell growth in a cell viability assay.
Catalogue of pIC50 readings, one per entry.
The meaning of pIC50 here: minus log10 of the concentration in molar units.

sequence_content=CISPLATIN reported_property=pIC50 reported_measurement=4.88

// below: pIC50 requested for another sequence
In: Kindly indicate its recorded pIC50. Item: BLEOMYCIN
Out: 4.56

----------
- Test system: TYK-nu;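 also: growth inhibition of human TYK-nu cells, read out by a cell viability assay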
- Assay Info: cells
- Type: functional, cell-based, Homo sapiens
- Test Parameters: Homo sapiens, TYK-nu
- Description: SANGER: Inhibition of human TYK-nu cell growth in a cell viability assay.
Structures can show the parent of a compound that is named as a salt.
Reported Property: IC50

molecule="CS(=O)(=O)c1ccc(C(=O)Nc2ccc(Cl)c(-c3ccccn3)c2)c(Cl)c1 [VISMODEGIB]" reported_measurement="> 10 µM"
molecule="C=C(c1ccc(C(=O)O)cc1)c1cc2c(cc1C)C(C)(C)CCC2(C)C [BEXAROTENE]" reported_measurement="7.11 µM"

In: Supply recorded IC50 for CCN(CC)CCCCNc1ncc2cc(-c3cc(OC)cc(OC)c3)c(NC(=O)NC(C)(C)C)nc2n1 [PD-173074] here.
Out: > 2 µM

In: For the molecule Cc1cc([N+](=O)[O-])ccc1NS(=O)(=O)c1cc(Cl)ccc1Cl , give its measured IC50 value.
Out: 2.01 µM

In: Report IC50, nothing else, for this molecule: COC1=CC(c2cc3ccccc3[nH]2)=N/C1=C\c1[nH]c(C)cc1C [OBATOCLAX MESYLATE]
Out: 0.179 µM

In: Retrieve IC50 measured for Nc1cccc2c1CN(C1CCC(=O)NC1=O)C2=O (centres undefined) [LENALIDOMIDE] and print it.
Out: > 5 µM

In: Please give the documented IC50 of Cn1cnc2c(F)c(Nc3ccc(Br)cc3Cl)c(C(=O)NOCCO)cc21 [SELUMETINIB]
Out: > 4 µM

In: Write down IC50 measured for item O=C(O)c1ccc(-c2c[nH]c3ncc(-c4ccccc4)cc23)cc1C1CCCC1 [GSK-650394]
Out: > 16 µM

In: Please indicate IC50 recorded for COc1cc2c(Nc3ccc(NC(=O)c4ccccc4)cc3)ncnc2cc1OCCCN1CCOCC1
Out: > 4 µM
